Reference for the values: patent US12240857B2

- Tested on: BDBV mucin-domain-deleted glycoprotein pseudotyped VSV
- assay_notes: microbe, parasite or virus in culture
- Format: cell-based, Bundibugyo ebolavirus
- test_parameters: Vesicular stomatitis virus, Vero, read-out: EC50 BDBV
// NB: equality with 300 nM counts as n; only EC50 strictly below is y

# compound, test_target, answer_label
records = [
    ("CCC12CC3CC(C(=O)NC4CCNCC4)(C1)CC(c1ccccc1)(C3)C2 (centres unmarked)", "BDBV mucin-domain-deleted glycoprotein pseudotyped VSV", "y"),
    ("CN1CCC[C@@H](NC(=O)C23CC4CC(C2)CC(c2ccccc2)(C4)C3)C1", "BDBV mucin-domain-deleted glycoprotein pseudotyped VSV", "y"),
    ("CC12CC3CC(C(=O)NC4CC5(CNC5)C4)(C1)CC(c1ccccc1)(C3)C2 (centres unmarked)", "BDBV mucin-domain-deleted glycoprotein pseudotyped VSV", "n"),
    ("O=C(N1CCCNCC1)C12CC3CC(C1)CC(c1ccccc1)(C3)C2", "BDBV mucin-domain-deleted glycoprotein pseudotyped VSV", "y"),
    ("CC12CC3CC(C(=O)NCc4ncc[nH]4)(C1)CC(c1ccccc1)(C3)C2 (centres unmarked)", "BDBV mucin-domain-deleted glycoprotein pseudotyped VSV", "n"),
    ("CC12CC3CC(C(=O)Nc4ccc(CN)cc4)(C1)CC(c1ccccc1)(C3)C2 (centres unmarked)", "BDBV mucin-domain-deleted glycoprotein pseudotyped VSV", "y"),
    ("CC1CCN(CC(O)CCOc2ccc(C34CC5CC(CC(C5)C3)C4)cc2)CC1 (centres unmarked)", "BDBV mucin-domain-deleted glycoprotein pseudotyped VSV", "n"),
]

====

- assay_notes: in vivo
- test_parameters: male, CD-1, mouse, 10 mg/kg

# compound, half-life [h]
data = [
    ("CC12CC3CC(C(=O)N[C@H]4CC[C@H](N)CC4)(C1)CC(c1ccccc1)(C3)C2.Cl (stereo partly shown) [Example A78]", 7),
]

====

- Tested on: BDBV mucin-domain-deleted glycoprotein pseudotyped VSV
- assay_notes: microbe, parasite or virus in culture
- Format: cell-based, Bundibugyo ebolavirus
- test_parameters: Vesicular stomatitis virus, Vero, read-out: EC50 BDBV
// NB: equality with 200 nM counts as F; only EC50 strictly below is T

# molecule, test_target, answer_label
measured = [
    ("N[C@H]1CC[C@H](NC(=O)C23CC4CC(C2)CC(C(F)(F)F)(C4)C3)CC1", "BDBV mucin-domain-deleted glycoprotein pseudotyped VSV", "F"),
    ("CC12CC3CC(C(=O)NC4CCNCC4(C)C)(C1)CC(c1ccccc1)(C3)C2 (centres unmarked)", "BDBV mucin-domain-deleted glycoprotein pseudotyped VSV", "T"),
    ("NCc1ccc(NCC23CC4CC(C2)CC(c2ccccc2)(C4)C3)nc1", "BDBV mucin-domain-deleted glycoprotein pseudotyped VSV", "F"),
    ("CC12CC3CC(C(=O)N4C5CCC4CC(N)C5)(C1)CC(c1ccccc1)(C3)C2 (centres unmarked)", "BDBV mucin-domain-deleted glycoprotein pseudotyped VSV", "F"),
    ("O=C(N1CCN(Cc2ccccc2)CC1)C12CC3CC(CC1C3)C2", "BDBV mucin-domain-deleted glycoprotein pseudotyped VSV", "F"),
    ("CC12CC3CC(C(=O)N[C@H]4CC[C@@H](N)CC4)(C1)CC(c1ccccc1)(C3)C2 (some centres unmarked)", "BDBV mucin-domain-deleted glycoprotein pseudotyped VSV", "F"),
    ("O=C(CC12CC3CC(C1)CC(c1ccccc1)(C3)C2)NCC(=O)N1CCN(Cc2ccccc2)CC1", "BDBV mucin-domain-deleted glycoprotein pseudotyped VSV", "F"),
    ("N[C@H]1CC[C@H](C(=O)NC23CC4CC(C2)CC(c2ccccc2)(C4)C3)CC1", "BDBV mucin-domain-deleted glycoprotein pseudotyped VSV", "F"),
    ("CN1CC[C@@H](NC(=O)CC23CC4CC(C2)CC(c2ccccc2)(C4)C3)C1", "BDBV mucin-domain-deleted glycoprotein pseudotyped VSV", "T"),
    ("CCOC12CC3CC(C1)CC(C(=O)NC1CCNCC1)(C3)C2", "BDBV mucin-domain-deleted glycoprotein pseudotyped VSV", "F"),
    ("COC(=O)c1ccc(COc2ccccc2CN2CC3CC2CN3C(=O)CNC(=O)CC23CC4CC(CC(C4)C2)C3)cc1 (centres unmarked)", "BDBV mucin-domain-deleted glycoprotein pseudotyped VSV", "F"),
    ("CC12CC3CC(C(=O)N4CCNCC4)(C1)CC(c1ccccc1)(C3)C2 (centres unmarked)", "BDBV mucin-domain-deleted glycoprotein pseudotyped VSV", "T"),
    ("O=C(CNC(=O)C12CC3CC(CC1C3)C2)N1CCN(Cc2ccccc2)CC1", "BDBV mucin-domain-deleted glycoprotein pseudotyped VSV", "F"),
    ("CC12CC3CC(C(=O)N[C@H]4CC[C@H](N)CC4)(C1)CC(c1ccccc1)(C3)C2.Cl (some centres unmarked)", "BDBV mucin-domain-deleted glycoprotein pseudotyped VSV", "T"),
    ("CC12CC3CC(C(=O)NC4C[C@H]5CC[C@H](C4)N5)(C1)CC(c1ccccc1)(C3)C2 (some centres unmarked)", "BDBV mucin-domain-deleted glycoprotein pseudotyped VSV", "F"),
    ("O=C(N[C@@H]1CCN(Cc2ccccc2)C1)C12CC3CC(C1)CC(c1ccccc1)(C3)C2", "BDBV mucin-domain-deleted glycoprotein pseudotyped VSV", "F"),
    ("O=C(CNC(=O)C12CC3CC(C1)CC(c1ccccc1)(C3)C2)N[C@@H]1CCN(Cc2ccccc2)C1", "BDBV mucin-domain-deleted glycoprotein pseudotyped VSV", "F"),
    ("COC(=O)c1ccc(COc2ccccc2CN2CCN(C(=O)CNC(=O)C34CC5CC(CC3C5)C4)CC2)cc1", "BDBV mucin-domain-deleted glycoprotein pseudotyped VSV", "F"),
    ("O=C(N[C@H]1CCN(Cc2ccccc2)C1)C12CC3CC(C1)CC(c1ccccc1)(C3)C2", "BDBV mucin-domain-deleted glycoprotein pseudotyped VSV", "F"),
    ("O=C(NC1CCNCC1)C12CC3CC(C1)CC(c1ccccc1)(C3)C2", "BDBV mucin-domain-deleted glycoprotein pseudotyped VSV", "T"),
    ("O=C(CC12CC3CC(C1)CC(c1ccccc1)(C3)C2)N1CCN(Cc2ccccc2)CC1", "BDBV mucin-domain-deleted glycoprotein pseudotyped VSV", "F"),
    ("O=C(CC12CC3CC(CC(C3)C1)C2)N1CC2CC1CN2Cc1ccccc1 (centres unmarked)", "BDBV mucin-domain-deleted glycoprotein pseudotyped VSV", "F"),
    ("OC(CCOc1ccc(C23CC4CC(CC(C4)C2)C3)cc1)CN1CCCCC1 (centres unmarked)", "BDBV mucin-domain-deleted glycoprotein pseudotyped VSV", "F"),
    ("COC(=O)c1ccc(COc2ccccc2CN2CCC3(CCN(C(=O)CNC(=O)CC45CC6CC(CC(C6)C4)C5)C3)C2)cc1 (centres unmarked)", "BDBV mucin-domain-deleted glycoprotein pseudotyped VSV", "F"),
    ("O=C(CC12CC3CC(CC(C3)C1)C2)N[C@@H]1CCN(Cc2ccccc2)C1", "BDBV mucin-domain-deleted glycoprotein pseudotyped VSV", "F"),
    ("CC12CC3CC(C(=O)NCCN)(C1)CC(c1ccccc1)(C3)C2 (centres unmarked)", "BDBV mucin-domain-deleted glycoprotein pseudotyped VSV", "F"),
    ("COC(=O)C12CC3CC(C(=O)N[C@H]4CC[C@H](N)CC4)(C1)CC(c1ccccc1)(C3)C2 (some centres unmarked)", "BDBV mucin-domain-deleted glycoprotein pseudotyped VSV", "F"),
    ("CN(CCN(C)C(=O)C12CC3CC(C1)CC(c1ccccc1)(C3)C2)Cc1ccccc1", "BDBV mucin-domain-deleted glycoprotein pseudotyped VSV", "F"),
    ("C[C@@H]1CN(C(=O)C23CC4CC(C)(C2)CC(c2ccccc2)(C4)C3)C[C@H](C)N1 (some centres unmarked)", "BDBV mucin-domain-deleted glycoprotein pseudotyped VSV", "T"),
    ("CC1CCN(C[C@H](O)COc2ccc(C34CC5CC(CC(c6ccccc6)(C5)C3)C4)cc2)CC1", "BDBV mucin-domain-deleted glycoprotein pseudotyped VSV", "F"),
]
